Molecular target: SARS-CoV-2 NSP3 Mac1 (Severe acute respiratory syndrome coronavirus 2)
Format: binding
Parameters: contains a conserved macrodomain enzyme (Mac1)
Conditions: maximal thermal upshift
So I've got a bunch of compounds here, and I need their DSF max dTma values.

Q: Item Cc1nnc(CNc2cnc(N)c(Cl)n2)n1C1CC1 : provide DSF max dTma
Result: 0.12 ˚C

Q: Item O=C(Nc1ccc(C(=O)NCc2c(C(=O)O)[nH]c3ccccc23)cc1)NC1CC1 : provide DSF max dTma
Result: 6.22 ˚C

Q: Item O=S1(=O)CCC2(CCCN(c3ncnc4[nH]c5cc(F)ccc5c34)C2)C1 (centres unmarked) : provide DSF max dTma
Result: 0.68 ˚C

Q: Item O=C(O)C1(F)CN(c2cc(Nc3ccccc3)ncn2)CC12CCC2 (centres unmarked) : provide DSF max dTma
Result: 1.36 ˚C

Q: Item O=C(CSc1nnn[nH]1)c1c[nH]c2ncc(Br)cc12 : provide DSF max dTma
Result: 1.16 ˚C

###

Target: SARS-CoV-2 NSP3 Mac1 (Severe acute respiratory syndrome coronavirus 2, UniProt P0DTD1)
Assay: biochemical
Format: binding
Settings: Ki*** [µM]
Metric: Ki

Q: Item O=C(O)[C@H]1CCCC[C@H]1Nc1ncnc2[nH]c3cc(F)ccc3c12 : provide Ki
Result: 1.5 µM

Q: Item O[C@H]1CCCC[C@H]1Nc1ncnc2[nH]ccc12 (relative stereo) : provide Ki
Result: 115 µM

###

System: P-glycoprotein (human MDR1)
Assay: in vitro
Conditions: dog, MDCK-MDR1, pH 7.4
Metric: Papp B→A at 90 min, 10 µM (×10⁻⁶ cm/s)
Field: numeric (×10⁻⁶ cm/s). Do not append units.

Q: Item O=C(Nc1ccc(C(=O)NC2c3cccc(O)c3CC2C(=O)O)cc1)NC1CC1 (stereo not shown) : provide Papp B→A at 90 min, 10 µM
Result: 0.5

###

Target: SARS-CoV-2 NSP3 Mac1 (Severe acute respiratory syndrome coronavirus 2, UniProt P0DTD1)
Assay: biochemical
Assay type: binding
Settings: Ki estimation from HTRF-derived IC50, Cheng-Prusoff, peptide 400nM, Kd 2.68µM; read-out: Ki***
So I've got a bunch of molecules here, and I need their pKi values.
Note on units: pKi is unitless, being -log10 of a concentration expressed in mol/L.

Q: Item O=C(O)C1(F)CN(c2cc(Nc3ccccc3)ncn2)CC12CCC2 (stereo not drawn) : provide pKi
Result: 3.98

Q: Item CCc1c[nH]c2ncnc(N3CCCC(Cc4nc(C)no4)C3)c12 (stereo not drawn) : provide pKi
Result: 3.89

Q: Item O=C(Nc1ccc(C(=O)NC2c3ccccc3CC2C(=O)O)cc1)NC1CC1 (stereo not drawn) : provide pKi
Result: 5.38

Q: Item O=C(Nc1ccc(C(=O)NCc2c(C(=O)O)oc3ccccc23)cc1)NC1CC1 : provide pKi
Result: 4.14

Q: Item O=C(O)CC1CN(c2ncnc3[nH]c4ccccc4c23)CCO1 (stereo not drawn) : provide pKi
Result: 4.49

Q: Item O=C1COc2cc(C(=O)NC3c4cccc(O)c4CC3C(=O)O)ccc2N1 (stereo not drawn) : provide pKi
Result: 4.61

Q: Item O=C(Nc1ccc(C(=O)NC2c3cccc(O)c3CC2C(=O)O)c(Cl)c1)NC1CC1 (stereo not drawn) : provide pKi
Result: 5.06

Q: Item CCc1c[nH]c2ncnc(N3CCC[C@H](C(N)=O)C3)c12 : provide pKi
Result: 3.75

Q: Item C[C@@H]1CN(c2ncnc3[nH]c4ccccc4c23)C[C@@H](CO)O1 : provide pKi
Result: 3.44
